Consider molecules characterized by their Ki with Mu-type opioid receptor (Rattus norvegicus).
Sequence (P33535 whole entry): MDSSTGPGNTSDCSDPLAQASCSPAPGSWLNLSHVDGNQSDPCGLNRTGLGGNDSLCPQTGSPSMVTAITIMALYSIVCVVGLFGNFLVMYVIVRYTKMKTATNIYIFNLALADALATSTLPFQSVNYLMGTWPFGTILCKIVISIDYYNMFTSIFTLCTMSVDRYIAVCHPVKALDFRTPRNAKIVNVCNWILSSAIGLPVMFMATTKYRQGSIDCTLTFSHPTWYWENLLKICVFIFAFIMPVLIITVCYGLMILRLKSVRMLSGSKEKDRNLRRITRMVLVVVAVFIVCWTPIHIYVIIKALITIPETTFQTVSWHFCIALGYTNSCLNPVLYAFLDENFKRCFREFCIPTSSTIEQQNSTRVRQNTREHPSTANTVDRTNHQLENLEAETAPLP
The figure you give is taken to be in nM; do not add the unit.

Molecule	Value Type	Endpoint Unit	Numeric Result
Oc1ccc2c3c1OC1c4[nH]c5c(-c6ccccc6)cccc5c4C[C@@]4(O)[C@@H](C2)N(CC2CC2)CC[C@]314 (some centres undefined)	Ki	nM	124
Oc1ccc2c3c1OC1c4[nH]c5ccc(OCc6ccccc6)cc5c4C[C@@]4(O)[C@@H](C2)N(CC2CC2)CC[C@]314 (some centres undefined)	Ki	nM	81
Oc1ccc2c3c1OC1c4[nH]c5c(OCc6ccccc6)cccc5c4C[C@@]4(O)[C@@H](C2)N(CC2CC2)CC[C@]314 (some centres undefined)	Ki	nM	159

Now turn to the next molecule.
Given the molecule Oc1ccc2c3c1OC1c4[nH]c5ccc(/C=C/c6ccccn6)cc5c4C[C@@]4(O)[C@@H](C2)N(CC2CC2)CC[C@]314 (some centres undefined) and test system Mu-type opioid receptor (Rattus norvegicus), the measured Ki is 76

Source: ChEMBL document CHEMBL1131041
